# Test system: BDF1 mice, B16 melanoma ip, median survival T/C
# assay.method.text: NCI In Vivo Anticancer Drug Screen. Data for tumor model B16 Melanoma (intraperitoneal) in B6D2F1 (BDF1) mice
# experimental.setup: endpoint: median survival time; dose: 50.0 mg/kg/injection; schedule: Q04DX003 (ip); vehicle: Klucel (hydroxypropylcellulose) (HPC); higher = longer survival
Toxic doses and inconclusive results are not listed.
observation.type: T/C

                                    compound          reported
 0               O=C(CBr)c1ccc(-c2ccccc2)cc1   94 % of control
 1      O=C(O)c1[nH]c(=O)[nH]c(=O)c1N1CCCCC1   86 % of control
 2  O=C1CCC(N2C(=O)c3ccccc3C2=O)C(=O)N1 (stereo not drawn)  106 % of control
 3                CCN(CC)CCOc1cc(C)ccc1C(C)C   95 % of control
 4  COC(=O)C1C2CC3c4[nH]c5cc(OC)ccc5c4CCN3CC2CC(OC2CCCCO2)C1OC (stereo not drawn)  111 % of control
 5                   Cc1cc(C(C)C)cc(C(C)C)c1   88 % of control
 6                  Cc1[nH]c(=O)[nH]c(=O)c1C   88 % of control
 7  C1CC[N-]CC1.C1CC[N-]CC1.O=C(O)C(=O)O.[Pt+2]  115 % of control
 8        Cc1cccc(-c2nc3cc(Cl)ccc3c(=O)o2)c1  103 % of control
 9                 Clc1ccc(C(Cl)(Cl)Cl)cc1Cl  102 % of control
10  CC1(C)C(C#N)C(=O)N=C(N)C1C(N)=O (stereo not drawn)  105 % of control
11  NC(=O)c1ncn(C2OC(CO)C(O)C2O)n1 (stereo not drawn)  102 % of control
12  COc1ccc(C(C#N)N2CCOCC2)cc1 (stereo not drawn)   95 % of control

These data points were gathered from PubChem BioAssay AID192.
